Tested on: HOP-62 NSCLC
Experiment: NCI-60 one-dose screen, 48 h (100 = growth as untreated, 0 = no growth, -100 = all killed)
Settings: 10 µM unless noted
This is part of a sample that, as a whole, favours compounds with a hit. Of some 83,000 tested, about 20% had one in any assay. The source made the active and inactive calls. How the source made its calls: active means growth percent below 10; inactive means the rest.
METRIC: growth

INSERT INTO assay_data (molecule, result_value) VALUES
  ('CS(=O)(=O)c1ccc2c(c1)c1c(n2Cc2ccc(Cl)cc2)CCCC1', '75.8% (inactive)'),
  ('C=CCn1c(SCC(=O)Nc2cccc(C(=O)/C=C/c3cc(OC)c(OC)c(OC)c3)c2)nc2ccccc2c1=O', '45.8% (inactive)'),
  ('Nc1c(C(=O)c2ccccc2)sc2nc(-c3cnccn3)cc(-c3cccs3)c12', '97.6% (inactive)'),
  ('Cc1ccccc1NC1CC(=O)N(c2ccc(Cl)cc2Cl)C1=O (stereo unspecified)', '103% (inactive)'),
  ('COc1cc(C(=O)c2cc(C(C)=O)c3c4ccccc4ccn23)cc(OC)c1OC', '56% (inactive)'),
  ('O=S(=O)(NCCCNc1nccc(-n2cnc3ccccc32)n1)c1ccc(F)cc1', '82.7% (inactive)'),
  ('C#CCOc1ccc(C(Nc2ccc(Cl)cc2)c2nnnn2C2CCCCC2)cc1 (stereo unspecified)', '83.4% (inactive)'),
  ('O=C(CSc1nnc(-c2ccc(Cl)cc2)n1-c1ccccc1)Nc1ccc(F)cc1', '75.2% (inactive)');

Look up growth: `Cn1c2ccc(Br)cc2c2c3c(c4c5cc(F)ccc5oc4c21)C(=O)N(O)C3=O`
47.1% (inactive)

// query growth value for entry `COc1ccccc1/C=C/C(=O)c1nnn(-c2ccc(C(=O)O)cc2)c1C`
110% (inactive)

Consider the molecule shown here: `CC(=O)C1=NN(c2ccc(Cl)cc2)C(=O)CN1C` What is its recorded growth?
103% (inactive)

Please report the recorded growth for `NC(=O)c1c(NC(=O)c2cccc(OC(F)(F)F)c2)sc2c1CCC(=O)C2` .
102% (inactive)

Sample `COc1ccc(/C=N\NC(=O)c2ccc3nc(-c4ccc(Br)cc4)[nH]c3c2)cc1` — what was its growth?
4.06% (active)

I would be grateful if you could share the reported growth for CC1COc2c(N3CCN(C)CC3)c(F)cc3c(=O)c(C(=O)N/N=C/c4cc[nH]c4)cn1c23 (stereo unspecified) .
38% (inactive)

// lookup growth for `CCN1CCN(Cc2ccc(C(=O)Nc3nc4ccc(Oc5ccnc(C(=O)NC)c5)cc4s3)cc2C(F)(F)F)CC1`
63.9% (inactive)

What measured growth goes with `CC(=O)Oc1ccc(CCN2C(=O)CSC2=S)cc1` ?
111% (inactive)

growth for `NC(=O)c1c(NC(=O)c2cccc(C(F)(F)F)c2F)sc2c1CCC(=O)C2` ?
58.4% (inactive)

# get_value(readout='growth', item= O=C(COc1ccc(C2SCC(=O)N2c2ccc(F)cc2)cc1)c1ccccc1 (stereo unspecified) )
95.5% (inactive)

Given the entry `CS(=O)(=O)c1nccc(-c2c(-c3ccc(F)c(OCCc4ccccc4)c3)nc3sccn23)n1` , report its measured growth.
103% (inactive)

# input molecule: `O=C1C[C@@H](c2ccccc2)Oc2c(Cc3ccccc3O)c(O)c(Cc3cc(Cc4cc(Cc5ccccc5O)ccc4O)ccc3O)c(O)c21` ; wanted: its growth
97.4% (inactive)

// query growth value for entry `CN(C)CCn1c2ccc(N)cc2c2nc3ccccc3nc21`
31.5% (inactive)
